For each entry below, report its chromatographic logP value.
assay-procedure: log P determination by HPLC (EEC Directive 79/831 Annex V.A8)
Format: physicochemical
conditions-used: reversed-phase HPLC, Zorbax Eclipse C18 column, by HPLC according to EEC Directive 79/831 Annex V.A8; read-out: log P
Give only the figure.

Recall and state the measured chromatographic logP for CCNC(=O)c1cc(C#N)cc(C)c1NC(=O)c1cc(Cn2nnc(C(F)(F)F)n2)nn1-c1ncccc1C(F)(F)F [Example 234] .
3.07

Give recorded chromatographic logP. Cc1cc(C#N)cc(C(=O)NC(C)(C)C)c1NC(=O)c1cc(Cn2nnc(C(F)(F)F)n2)nn1-c1ncccc1C(F)(F)F [Example 232]
3.59

Identify chromatographic logP associated with the molecule CNC(=O)c1cc(Cl)cc(C)c1NC(=O)c1cc(Cn2nnc(C(F)(F)F)n2)nn1-c1ccccc1Br [Example 345]
3.5

Recall and state the measured chromatographic logP for Cc1cc(C#N)cc(C(=O)NC(C)C)c1NC(=O)c1cc(Cn2nnc(C(F)(F)F)n2)nn1-c1ccccc1Cl [Example 341] .
3.6

For the molecule CNC(=O)c1cc(C#N)cc(C)c1NC(=O)c1cc(Cn2nnc(C(F)(F)F)n2)nn1-c1ccccc1F [Example 318] , report chromatographic logP.
2.92

Return chromatographic logP for the following molecule: CCNC(=O)c1cc(Cl)cc(C)c1NC(=O)c1cc(Cn2nnc(C(F)(F)F)n2)nn1-c1ncccc1C(F)(F)F [Example 237]
3.43

Given the molecule Cc1cc(Br)cc(C(N)=O)c1NC(=O)c1cc(Cn2nnc(C(F)(F)F)n2)nn1-c1ncccc1Br [Example 353] , write its reported chromatographic logP.
2.82

====

assay-procedure: log P determination by HPLC (EEC Directive 79/831 Annex V.A8)
Type: physicochemical
conditions-used: log P
quantity-kind: chromatographic logP

// fetch chromatographic logP given entry `Cc1cc(Br)cc(C(=O)NC(C)C)c1NC(=O)c1cc(Cn2nnc(C(F)F)n2)nn1-c1ncccc1Cl`
3.08

Give chromatographic logP for `Cc1cc(C#N)cc(C(=O)NCC#N)c1NC(=O)c1cc(Cn2nnc(C(F)(F)C(F)(F)F)n2)nn1-c1ncccc1Cl`
3.01

Please indicate chromatographic logP recorded for COCC(C)NC(=O)c1cc(C#N)cc(C)c1NC(=O)c1cc(Cn2nnc(C(F)(F)F)n2)nn1-c1ncccc1Cl (stereo not drawn)
2.95

====

assay-procedure: log P determination by HPLC (EEC Directive 79/831 Annex V.A8)
Type: physicochemical
conditions-used: reversed-phase HPLC, Zorbax Eclipse C18 column, determined by HPLC according to EEC Directive 79/831 Annex V.A8; read-out: log P
quantity-kind: chromatographic logP
Please give the numeric answer without any surrounding text.

Specify measured chromatographic logP for Cc1cc(C#N)cc(C(=O)NC(C)C)c1NC(=O)c1cc(Cn2nnc(C(F)(F)F)n2)nn1-c1ncccc1F [Example 406] .
2.88

Identify measured chromatographic logP associated with Cc1cc(Cl)cc(C(=O)NC(C)C)c1NC(=O)c1cc(Cn2nnnc2C(F)(F)C(F)(F)F)nn1-c1ncccc1Br [Example 513]
3.54

Please look at this molecule and report its chromatographic logP: Cc1cc(Cl)cc(C(=O)NC2CC2)c1NC(=O)c1cc(Cn2nnnc2C(F)(F)C(F)(F)F)nn1-c1ncccc1Br [Example 515]
3.29

Please supply the value of reported chromatographic logP for the item CCNC(=O)c1cc(I)cc(C)c1NC(=O)c1cc(Cn2nnnc2C(F)(F)F)nn1-c1ncccc1C(F)(F)F [Example 457]
3.3

Fill in chromatographic logP for record CNC(=O)c1cc(Cl)cc(C)c1NC(=O)c1cc(Cn2nnnc2C(F)(F)F)nn1-c1ccc(Cl)cc1Cl [Example 449]
3.64

Output chromatographic logP of Cc1cc(C#N)cc(C(N)=O)c1NC(=O)c1cc(Cn2nnc(C(F)(F)F)n2)nn1-c1ccccc1Cl [Example 439]
2.82

Please look at this molecule and report its chromatographic logP: Cc1cc(I)cc(C(N)=O)c1NC(=O)c1cc(Cn2nnnc2C(F)(F)F)nn1-c1ncccc1C(F)(F)F [Example 455]
2.83

State its chromatographic logP for this molecule: CCNC(=O)c1cc(I)cc(C)c1NC(=O)c1cc(Cn2nnc(C(F)(F)F)n2)nn1-c1ncccc1Br [Example 408]
3.51

Tell us which chromatographic logP value is on record for Cc1cc(Cl)cc(C(N)=O)c1NC(=O)c1cc(Cn2nnnc2C(F)(F)F)nn1-c1ncccc1Br [Example 481]
2.43

Look up and report measured chromatographic logP for this entry: Cc1cc(Cl)cc(C(=O)NC(C)C)c1NC(=O)c1cc(Cn2nnc(C(F)(F)F)n2)nn1-c1ccccc1Cl [Example 427]
3.93

Item CCNC(=O)c1cc(C#N)cc(C)c1NC(=O)c1cc(Cn2nnnc2C(F)(F)F)nn1-c1ccccc1Cl [Example 492] : provide chromatographic logP
3.01

Please report the measured chromatographic logP for Cc1cc(C#N)cc(C(=O)NC(C)(C)C)c1NC(=O)c1cc(Cn2nnnc2C(F)(F)C(F)(F)F)nn1-c1ncccc1Br [Example 518]
3.47

Give recorded chromatographic logP. Cc1cc(Cl)cc(C(N)=O)c1NC(=O)c1cc(Cn2nnc(C(F)(F)C(F)(F)F)n2)nn1-c1ncccc1Br [Example 418]
3.13

// fetch chromatographic logP given entry CNC(=O)c1cc(S(C)(=O)=O)cc(C)c1NC(=O)c1cc(Cn2nnc(C(F)(F)F)n2)nn1-c1ccccc1Cl [Example 441]
2.73

Specify chromatographic logP for Cc1cc(C#N)cc(C(=O)NC(C)C)c1NC(=O)c1cc(Cn2nnnc2C(F)(F)F)nn1-c1ccccc1Cl [Example 491] and stop.
3.25

Identify measured chromatographic logP corresponding to CCNC(=O)c1cc(C#N)cc(C)c1NC(=O)c1cc(Cn2nnnc2C(F)(F)F)nn1-c1ncccc1Br [Example 478]
2.66

Check the records and state chromatographic logP for CNC(=O)c1cc(Cl)cc(C)c1NC(=O)c1cc(Cn2nnc(C(F)(F)C(F)(F)F)n2)nn1-c1ccccc1Cl [Example 402]
3.78

State its chromatographic logP for this molecule: Cc1cc(C#N)cc(C(=O)NC(C)C)c1NC(=O)c1cc(Cn2nnc(C(F)(F)C(F)(F)F)n2)nn1-c1ccccc1Cl [Example 539]
3.91

Please report the measured chromatographic logP for Cc1cc(C#N)cc(C(=O)NCCC(F)(F)F)c1NC(=O)c1cc(Cn2nnc(C(F)(C(F)(F)F)C(F)(F)F)n2)nn1-c1ncccc1Cl [Example 414]
3.92

Quick one: give measured chromatographic logP for CNC(=O)c1cc(Cl)cc(C)c1NC(=O)c1cc(Cn2nnnc2C(F)(F)F)nn1-c1ccccc1 [Example 502]
2.84

Look up chromatographic logP of Cc1cc(C#N)cc(C(=O)NCC2CC2)c1NC(=O)c1cc(Cn2nnnc2C(F)(F)F)nn1-c1ccccc1Cl [Example 526] and report it.
3.25

Using the record for CCNC(=O)c1cc(Cl)cc(C)c1NC(=O)c1cc(Cn2nnnc2C(F)(F)F)nn1-c1ncccc1Br [Example 494] , state its measured chromatographic logP.
2.88

Identify the reported chromatographic logP for the following entry. CCNC(=O)c1cc(C#N)cc(C)c1NC(=O)c1cc(Cn2nnc(C(F)(F)C(F)(F)F)n2)nn1-c1ccccc1Cl [Example 532]
3.87

Assign chromatographic logP to the following record: Cc1cc(C#N)cc(C(=O)NCC#N)c1NC(=O)c1cc(Cn2nnc(C(F)(F)C(F)(F)F)n2)nn1-c1ncccc1Br [Example 416]
2.8

Determine its reported chromatographic logP: Cc1cc(Br)cc(C(=O)NC(C)C)c1NC(=O)c1cc(Cn2nnnc2C(F)(F)F)nn1-c1ncccc1Br [Example 501]
3.27

Look up and report measured chromatographic logP for this entry: Cc1cc(Cl)cc(C(=O)NCC#N)c1NC(=O)c1cc(Cn2nnc(C(F)(F)C(F)(F)F)n2)nn1-c1ncccc1Br [Example 421]
3.31

Reference for the values: patent US8324390B2
